These entries and their values trace back to ChEMBL document CHEMBL5241081.

biological target: CREB-binding protein (Homo sapiens); experiment: Binding affinity to CBP (unknown origin) assessed as dissociation constant
Sequence (Q92793 whole entry): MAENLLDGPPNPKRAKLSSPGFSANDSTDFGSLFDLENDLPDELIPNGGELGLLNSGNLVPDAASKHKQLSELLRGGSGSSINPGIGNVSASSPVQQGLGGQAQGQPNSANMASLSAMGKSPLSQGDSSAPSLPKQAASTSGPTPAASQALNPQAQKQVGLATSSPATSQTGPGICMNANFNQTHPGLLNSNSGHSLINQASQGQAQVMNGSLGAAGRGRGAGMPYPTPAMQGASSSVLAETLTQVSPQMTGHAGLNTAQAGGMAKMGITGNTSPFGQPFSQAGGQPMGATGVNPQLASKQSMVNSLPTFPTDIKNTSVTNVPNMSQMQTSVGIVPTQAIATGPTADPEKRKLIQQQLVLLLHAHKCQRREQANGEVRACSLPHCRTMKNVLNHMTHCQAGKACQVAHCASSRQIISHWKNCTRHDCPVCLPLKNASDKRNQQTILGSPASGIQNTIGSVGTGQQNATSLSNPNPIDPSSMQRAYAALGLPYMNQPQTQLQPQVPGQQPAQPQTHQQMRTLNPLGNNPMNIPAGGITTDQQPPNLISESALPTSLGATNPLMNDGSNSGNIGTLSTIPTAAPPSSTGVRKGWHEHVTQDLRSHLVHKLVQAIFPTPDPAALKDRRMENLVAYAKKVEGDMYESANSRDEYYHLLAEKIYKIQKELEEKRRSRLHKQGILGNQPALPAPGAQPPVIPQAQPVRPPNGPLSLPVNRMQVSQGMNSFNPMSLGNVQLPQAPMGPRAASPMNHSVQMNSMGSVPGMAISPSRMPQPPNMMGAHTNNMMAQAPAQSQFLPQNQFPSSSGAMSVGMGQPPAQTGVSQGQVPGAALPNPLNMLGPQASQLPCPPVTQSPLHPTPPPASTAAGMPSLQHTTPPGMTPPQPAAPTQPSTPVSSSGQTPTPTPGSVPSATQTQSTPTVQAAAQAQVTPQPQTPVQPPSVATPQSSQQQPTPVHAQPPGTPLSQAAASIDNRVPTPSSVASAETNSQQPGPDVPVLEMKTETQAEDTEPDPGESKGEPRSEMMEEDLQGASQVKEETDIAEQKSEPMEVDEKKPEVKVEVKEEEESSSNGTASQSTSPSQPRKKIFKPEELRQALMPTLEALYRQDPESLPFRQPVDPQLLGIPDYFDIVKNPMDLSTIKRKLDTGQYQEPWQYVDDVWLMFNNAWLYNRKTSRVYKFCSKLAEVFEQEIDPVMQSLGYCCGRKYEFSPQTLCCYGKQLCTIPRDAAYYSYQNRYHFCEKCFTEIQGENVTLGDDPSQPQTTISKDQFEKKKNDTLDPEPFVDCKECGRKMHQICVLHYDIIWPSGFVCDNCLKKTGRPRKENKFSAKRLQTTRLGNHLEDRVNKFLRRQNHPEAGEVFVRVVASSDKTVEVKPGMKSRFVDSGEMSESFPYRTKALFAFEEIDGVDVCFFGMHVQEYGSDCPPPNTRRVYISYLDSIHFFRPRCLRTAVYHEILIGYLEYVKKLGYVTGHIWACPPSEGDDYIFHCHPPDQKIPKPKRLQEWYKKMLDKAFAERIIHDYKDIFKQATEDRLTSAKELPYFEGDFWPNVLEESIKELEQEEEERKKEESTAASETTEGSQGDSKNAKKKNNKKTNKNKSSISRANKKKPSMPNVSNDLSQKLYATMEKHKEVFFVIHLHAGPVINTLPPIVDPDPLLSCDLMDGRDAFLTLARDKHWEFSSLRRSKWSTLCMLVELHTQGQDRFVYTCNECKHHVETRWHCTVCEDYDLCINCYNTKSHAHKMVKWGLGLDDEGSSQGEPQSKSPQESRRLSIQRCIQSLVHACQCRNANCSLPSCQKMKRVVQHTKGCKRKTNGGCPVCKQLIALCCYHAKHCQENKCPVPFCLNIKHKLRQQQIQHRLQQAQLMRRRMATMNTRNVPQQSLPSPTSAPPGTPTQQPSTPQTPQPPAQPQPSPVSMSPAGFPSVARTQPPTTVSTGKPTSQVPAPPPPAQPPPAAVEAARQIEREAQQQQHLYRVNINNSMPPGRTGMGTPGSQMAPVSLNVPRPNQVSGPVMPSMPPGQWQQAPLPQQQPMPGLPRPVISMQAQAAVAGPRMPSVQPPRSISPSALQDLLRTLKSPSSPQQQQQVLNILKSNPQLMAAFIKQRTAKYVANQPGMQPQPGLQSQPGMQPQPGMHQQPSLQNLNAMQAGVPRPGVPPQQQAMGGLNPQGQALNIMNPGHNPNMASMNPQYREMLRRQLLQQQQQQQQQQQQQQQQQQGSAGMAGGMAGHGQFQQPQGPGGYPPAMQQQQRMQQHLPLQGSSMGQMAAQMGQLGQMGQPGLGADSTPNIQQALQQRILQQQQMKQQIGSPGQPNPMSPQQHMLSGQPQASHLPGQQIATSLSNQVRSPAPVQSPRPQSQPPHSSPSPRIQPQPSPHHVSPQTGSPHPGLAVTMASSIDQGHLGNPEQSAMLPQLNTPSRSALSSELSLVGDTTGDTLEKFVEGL
property_measured: Kd (nM)
# output: bare number, implied unit nM

response.value for Cc1cc(-c2ccc3nc(C4CCOCC4)n(CCOC(F)(F)F)c3c2)cn(C)c1=O (field: Kd) = 19

###

Biological target: Protein deacetylase HDAC6 (Homo sapiens)
Sequence (Q9UBN7 whole entry): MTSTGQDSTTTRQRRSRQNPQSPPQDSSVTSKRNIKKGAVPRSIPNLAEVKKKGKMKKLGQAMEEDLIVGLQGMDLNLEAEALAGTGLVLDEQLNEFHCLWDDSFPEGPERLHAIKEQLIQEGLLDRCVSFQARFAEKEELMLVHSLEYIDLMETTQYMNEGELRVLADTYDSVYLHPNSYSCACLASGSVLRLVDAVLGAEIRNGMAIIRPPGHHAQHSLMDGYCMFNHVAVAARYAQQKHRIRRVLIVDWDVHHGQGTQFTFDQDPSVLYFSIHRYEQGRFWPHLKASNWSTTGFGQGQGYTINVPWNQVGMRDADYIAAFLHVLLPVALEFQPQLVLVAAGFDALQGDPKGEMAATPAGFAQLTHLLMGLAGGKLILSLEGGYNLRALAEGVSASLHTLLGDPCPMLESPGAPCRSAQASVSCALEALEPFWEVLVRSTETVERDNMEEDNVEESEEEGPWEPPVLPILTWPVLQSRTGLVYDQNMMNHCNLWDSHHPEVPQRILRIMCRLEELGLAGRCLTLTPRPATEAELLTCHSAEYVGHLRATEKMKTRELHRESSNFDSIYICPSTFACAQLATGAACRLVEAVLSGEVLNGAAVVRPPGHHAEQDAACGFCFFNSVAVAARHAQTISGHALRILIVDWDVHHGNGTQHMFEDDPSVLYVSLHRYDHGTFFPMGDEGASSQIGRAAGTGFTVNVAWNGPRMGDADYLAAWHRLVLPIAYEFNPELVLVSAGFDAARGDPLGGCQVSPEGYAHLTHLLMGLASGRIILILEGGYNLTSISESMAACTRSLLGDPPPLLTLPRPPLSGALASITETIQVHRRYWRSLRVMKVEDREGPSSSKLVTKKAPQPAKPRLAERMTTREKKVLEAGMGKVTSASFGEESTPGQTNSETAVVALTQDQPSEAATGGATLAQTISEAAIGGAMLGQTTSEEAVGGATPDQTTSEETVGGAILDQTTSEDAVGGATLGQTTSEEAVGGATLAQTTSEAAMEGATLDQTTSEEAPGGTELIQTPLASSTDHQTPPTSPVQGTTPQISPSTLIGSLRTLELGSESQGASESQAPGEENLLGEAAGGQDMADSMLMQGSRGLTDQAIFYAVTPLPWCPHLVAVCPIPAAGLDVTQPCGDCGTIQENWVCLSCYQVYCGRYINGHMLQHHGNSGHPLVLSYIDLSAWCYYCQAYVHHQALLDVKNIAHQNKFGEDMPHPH
property_measured: IC50

In plain terms, Cc1sc2c(c1C)C(c1ccc(Cl)cc1)=N[C@@H](CC(=O)Nc1ccc(C(=O)NO)cc1)c1nnc(C)n1-2 has a documented IC50 of 0.021 µM
